# Test system: UACC-257
# assayComment: NCI tumour cell line growth inhibition, 48 h
Calls of active or inactive are those of the source. Cut-off read from the data, not from the text of the source: active = GI50 up to about 1.1 µM and inactive = higher.
GI50 for assorted molecules

# molecule, targetDesc, GI50
measured = [
    ("O=C(/C=C\\Nc1ccccc1O)C(Cl)(Cl)Cl", "UACC-257", "33.5 µM (inactive)"),
    ("CC(=O)c1sc2c(c1OC(=O)c1ccc(Cl)cc1)c(=O)n(-c1ccccc1)c(=S)n2-c1ccccc1", "UACC-257", "5.19 µM (inactive)"),
    ("N#CC1=C(N)OC2=C(CSc3ccccc32)C1c1ccc(Br)cc1 (stereo not given)", "UACC-257", "12.1 µM (inactive)"),
    ("CO/N=C(/C)c1cccc(Nc2nc3ccc(Cl)cc3c3[nH]c4ccccc4c23)c1", "UACC-257", "14.5 µM (inactive)"),
    ("CC(C)c1cccc(C(C)C)c1NC(=S)Nc1ccccc1", "UACC-257", "> 100 µM (inactive)"),
    ("CCCC[C@@H](C)/C=C1\\CN2CCC[C@H]2[C@@](C)(OCc2ccccc2)[C@@H]1O", "UACC-257", "> 17.6 µM (inactive)"),
    ("O=C(/C=C/c1ccc(O)c(O)c1)NCCc1ccc(-c2ccccc2)cc1", "UACC-257", "> 100 µM (inactive)"),
    ("Oc1ccc(-c2cc(-c3cc(-c4ccc(O)cc4)no3)on2)cc1", "UACC-257", "7.64 µM (inactive)"),
    ("COc1cc2c(cc1OC)C1=CCC(c3ccccc3)[N+]1(C)CC2 (stereo not given)", "UACC-257", "33.5 µM (inactive)"),
    ("COc1ccc2c(c1OC)OCC(CN(C)C)C2=O (stereo not given)", "UACC-257", "16.7 µM (inactive)"),
]

====

# System: RPMI-8226
# assayComment: NCI tumour cell line growth inhibition, 48 h
Active and inactive are the calls of the source. No stated cut-off is given here; in the data, active = GI50 up to about 1.1 µM and inactive = higher.
GI50 values by entry

# molecule, GI50
data = [
    ("COc1cc2c(cc1OC)C1=CCC(c3ccccc3)[N+]1(C)CC2 (stereo unspecified)", "> 100 µM (inactive)"),
    ("c1ccc(COCC2OC3c4ccccc4COC3C2OCc2ccccc2)cc1 (stereo unspecified)", "63 µM (inactive)"),
    ("CC1(C)C=[N+]([O-])C(C)(C)N1O", "> 10 µM (inactive)"),
    ("COc1ccc2nc(NCN3C(=O)c4ccccc4C3=O)sc2c1", "> 100 µM (inactive)"),
    ("CCOC(=O)c1ccc(-c2cc(C)no2)[nH]1", "> 100 µM (inactive)"),
    ("Cn1c([C@H](C#N)C(=O)c2cc(O)ccc2[N+](=O)[O-])nc2ccccc21", "> 100 µM (inactive)"),
    ("COc1cc(CCc2cccnc2)cc(OC)c1OC", "> 100 µM (inactive)"),
    ("N#CC1=C(N)OC2=C(CSc3ccccc32)C1c1ccc(Br)cc1 (stereo unspecified)", "2.07 µM (inactive)"),
    ("CN(NC(=O)c1ccco1)C1=NCCCCN1", "> 100 µM (inactive)"),
    ("CC(=O)OCC1OC(NC(=S)CCSc2nc3ccccc3c(=O)n2-c2ccccc2)C(OC(C)=O)C(OC(C)=O)C1OC(C)=O (stereo unspecified)", "> 100 µM (inactive)"),
    ("O=P(O)(O)c1ccc(-c2ccc(I)cc2)cc1", "> 100 µM (inactive)"),
]
